Property: kon; scope: individual binders
EXPERIMENTAL_SYSTEM: T1, ActRIIB-Fc homodimer (human, UniProt Q13705 19-137)
T1 construct: extracellular domain; also called unmodified ActRIIB-Fc homodimer; ActRIIB-Fc:ActRIIB-Fc homodimer
T1 sequence (looked up): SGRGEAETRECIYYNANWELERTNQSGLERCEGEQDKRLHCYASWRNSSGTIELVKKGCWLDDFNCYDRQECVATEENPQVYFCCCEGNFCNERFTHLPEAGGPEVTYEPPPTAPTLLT
TEST: SPR (Biacore), 37 C, anti-Fc capture, ligand in flow
Just the number in M⁻¹ s⁻¹, nothing appended.

Examples with their reported kon follow.
BMP10 (ligand, UniProt O95393 317-424, looked up) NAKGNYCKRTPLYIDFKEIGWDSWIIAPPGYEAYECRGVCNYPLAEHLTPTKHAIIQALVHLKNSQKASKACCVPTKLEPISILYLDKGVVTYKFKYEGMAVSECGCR
5.1e+07
activin B (ligand, UniProt P09529 293-407, looked up) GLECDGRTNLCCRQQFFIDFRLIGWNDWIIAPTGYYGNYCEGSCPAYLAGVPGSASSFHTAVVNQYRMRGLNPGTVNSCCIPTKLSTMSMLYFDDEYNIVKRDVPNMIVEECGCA
8.1e+06

Request: Look up and report measured kon for this entry: GDF11 (ligand, UniProt O95390 299-407, looked up, also called BMP11) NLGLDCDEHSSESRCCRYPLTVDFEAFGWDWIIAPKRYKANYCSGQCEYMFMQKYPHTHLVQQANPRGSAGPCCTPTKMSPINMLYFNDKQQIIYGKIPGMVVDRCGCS
Response: 4.1e+07

Request: Look up and report measured kon for this entry: BMP9 (ligand, UniProt Q9UK05 320-429, looked up, also called GDF2) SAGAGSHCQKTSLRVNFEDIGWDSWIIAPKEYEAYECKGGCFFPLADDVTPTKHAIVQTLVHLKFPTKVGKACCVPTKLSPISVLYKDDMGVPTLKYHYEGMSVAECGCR
Response: 5e+06
